System: A498 renal
measurement notes: NCI-60 one-dose screen, 48 h (100 = growth as untreated, 0 = no growth, -100 = all killed)
study conditions: 10 µM unless noted
The panel holds about 83,000 compounds, 20% with a hit somewhere; the sample as a whole holds those more often.
test readout: growth (%)

compound	test readout	unit text	quantitative readout
COC(=O)c1ccc2c(C(=Nc3ccc(N(C)C(=O)CN4CCN(C)CC4)cc3)c3ccccc3)c(O)[nH]c2c1	growth	%	21.7
Cc1ccc(-[n+]2c3cc(N)c(C)cc3nc3cc(C)c(Nc4ccccc4)cc32)cc1	growth	%	-84.5
CCc1ccc(/C=C/c2ccc(O)c3ncccc23)[n+](C)c1	growth	%	29.6
O=c1[nH]c(N2CCOCC2)nc2scc(-c3ccccc3)c12	growth	%	104
COc1cc(-c2nc(C(=O)NCC(=O)O)nn2-c2ccc(Cl)cc2)cc(OC)c1OC	growth	%	107
CCCCn1c(C)nc2ccc(Nc3nc(N4CCN(C)CC4)nc4nc[nH]c34)cc21	growth	%	71.7
CC(C)(C)OC(=O)N1CCC(O)[C@@H](O[Si](c2ccccc2)(c2ccccc2)C(C)(C)C)[C@H]1/C=C/c1ccccc1 (some centres undefined)	growth	%	68.2
COc1cc2ncnc(Nc3ccc(F)c(Cl)c3)c2cc1NC(=O)/C=C/CN1CCCCC1	growth	%	-80.4
COc1cccc2cc(-c3nc(C4CCC(C(=O)O)CC4)n4ncnc(N)c34)[nH]c12 (centres undefined)	growth	%	-50.6
CC(C)NC[C@@H](C(=O)N1CCN(c2ncnc3c2[C@H](C)C[C@H]3O)CC1)c1ccc(Cl)cc1	growth	%	-21.7
C=CC(=O)N1CCC[C@@H](n2nc(-c3ccc(Oc4ccccc4)cc3)c3c(N)ncnc32)C1	growth	%	-17.1
C/C(=C(/c1ccc(Cl)cc1)c1ccc(OCCN2CCCCCC2)cc1)c1ccccc1	growth	%	86
CC(=Nc1ccccc1)C1=C(O)C(Cc2ccccc2)NC1=O (centres undefined)	growth	%	-22.1
Cc1cnc(NC(=O)Nc2cc(Br)c(C)cc2OC[C@@H]2CNCCO2)cn1	growth	%	18.1
Cn1cc(-c2cnn3c(N)c(Br)c([C@@H]4CCCNC4)nc23)cn1	growth	%	-8.93
O=S1(=O)OC(c2ccc(O)c(Cl)c2)(c2ccc(O)c(Cl)c2)c2ccccc21	growth	%	90.3
O=c1sn(-c2cccc3ccccc23)c(=O)n1Cc1ccccc1	growth	%	102
NC(=O)N1N=C(c2ccc(Cl)cc2)CC1c1cn(-c2ccccc2)nc1-c1ccc(Cl)cc1 (centres undefined)	growth	%	71.1
CN1CCN(c2ccc(C(=O)Nc3n[nH]c4ccc(Cc5cc(F)cc(F)c5)cc34)c(NC3CCOCC3)c2)CC1	growth	%	-54.8

====

Test system: CCRF-CEM leukemia
measurement notes: NCI-60 one-dose screen, 48 h
study conditions: 10 µM unless noted
Compounds without any hit were thinned out: in the full panel of roughly 83,000, 20% have a hit. The source made the active and inactive calls. The calls were made as follows: active = growth percent below 10; inactive = the rest.
Possible outcomes: yes (1) (active), no (0) (inactive)

compound	qualitative label
Cc1ccc(Nc2nccc(N(C)c3ccc4c(C)n(C)nc4c3)n2)cc1S(N)(=O)=O	no (0)
CCc1ccc(/C=C/c2ccc(O)c3ncccc23)[n+](C)c1	no (0)
CC/C(=C(\c1ccc(OCCN2CCCCCCC2)cc1)c1ccc(OC(=O)C2CCCCC2)cc1)c1ccc(Cl)cc1	no (0)
CNC(=O)c1cc(Oc2ccc(NC(=O)Nc3ccc(Cl)c(C(F)(F)F)c3)c(F)c2)ccn1	yes (1)
C=CCC(=O)N[C@H](/C=C/C(=O)O)Cc1ccc(-c2cc(Cl)cc(Cl)c2)cc1	no (0)
CCc1nc2ccc(Cc3ccc(C(=O)NO)cc3)cc2c(=O)n1CCc1ccccc1	yes (1)
CC(C)C1CCC(C)C(C2(C#N)C(N)=NC(N)=C2C#N)C1=O (centres undefined)	no (0)
Cc1cc(O)cc(-c2c(-c3ccnc(-c4cccnc4)c3)cnn2C)c1	no (0)
CCc1cc2c(cc1N1CCC(N3CCOCC3)CC1)C(C)(C)c1[nH]c3cc(C#N)ccc3c1C2=O	no (0)

Attribution: PubChem BioAssay (NCI)
